These entries and their values trace back to patent US20260207767A1.

Target: T1, cynoPD-1 His (AcroBiosystems PD1-C5223) (cynomolgus monkey, UniProt B0LAJ3 25-170)
T1 construct: also called cPD-1; cynomolgus PD-1 His-tagged
T1 sequence (B0LAJ3 entry or part of it limits assumed): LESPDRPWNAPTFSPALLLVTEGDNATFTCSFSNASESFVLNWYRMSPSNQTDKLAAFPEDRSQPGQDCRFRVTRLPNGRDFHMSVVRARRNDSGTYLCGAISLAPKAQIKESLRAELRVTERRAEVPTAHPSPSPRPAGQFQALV
Assay: BLI (legend: SPR), Ab on sensor
Measured kon, listed per entry.
Quantity kind: kon (M⁻¹ s⁻¹)

>  <Binder>
40B20 (antibody, V domains shown, used with CH1,2,3 and corresponding CL) VH: EVQLVESGGGLVQPGGSLRLSCAASGFTFSSYSMNWVRQAPGKGLQWVSYITSSSNTMYYADSVKGRFTISRDNAKNSLYLQMNSLRDEDTAVYYCASIVGAPFDYWGQGTLVTVSS VL: EIVMTQSPATLSVSPGERATLSCRASQSVSSSLAWYQQKPGQAPRLLIYGASTRATGIPARFSGSGSGTEFTLTISSLQSEDFAAYYCQQYNNWPFTFGPGTKVDIK

>  <Quantity kind>
kon

>  <Observed>
67300

$$$$
>  <Binder>
20H02 (antibody, V domains shown, used with CH1,2,3 and corresponding CL) VH: EVLLVESGGGLVQPGGSLRLSCAASGFTFSSYSMNWVRQAPGKGLEWVSFISSSSPTLYYADSVKGRFTISRDNAKNSLYLQMNSLRDEDTAVYYCARQGLTPFDYWGQGTLVTVSS VL: EIVMTQSPATLSVFPGERATLSCRASQSVSSYLAWYQQKPGQAPRLLIYGASTRATGIPARVSGSGSGTEFILTISSLQSEDFAVYYCQQYNNWPYTFGQGTKLEIK

>  <Quantity kind>
kon

>  <Observed>
72500

$$$$
>  <Binder>
56H02 (antibody, V domains shown, used with CH1,2,3 and corresponding CL) VH: QVQLVQSGAEVKKPGASVKVSCKASGYTFTSYFMHWVRQAPGQGLEWMGLINPDGGNTDYAQKFQGRVTMTRDTSTSTVYMELSSLRSEDTAVYYCARDGNYYDSSGYYYPDAFDIWGQGTMVTVSS VL: SSELTQDPAVSVALGQTVRITCQGDSLRRFYASWYQQKPGQAPVIVIYGKDNRPSGTPDRFSGSTSGNTASLTITGAQAEDEADYYCNSRDSSGTHVVFGGGTKLTVL

>  <Quantity kind>
kon

>  <Observed>
140000

$$$$
>  <Binder>
39F23 (antibody, V domains shown, used with CH1,2,3 and corresponding CL) VH: QVQLVESGGGVGQPGRSLRLSCAASGFTFSNYGMHWVRQAPGKGLEWVAVIWYDGSKKYYADSVKGRFTISRDNSKNTLYLQMNSLRVEDTAVYYCVGNSGHWGQGTLVTVSS VL: DIVMTQTPLSLPVTPGEPASISCRSSQSLLDSDDGNTYLDWYLQKPGQSPQLLIYTLSYRASGVPDRFSGSGSGTDFTLKISRVEAEDVGVYYCMQCIEFPHTFGGGTKVEIK

>  <Quantity kind>
kon

>  <Observed>
227000

$$$$
